Taken from patent US20240132624A1.

assayed_system: T1, cyno FcRn/b2M (cyno, UniProt Q8SPV9 24-297; Q8SPW0 21-119, biotinylated)
T1 construct: bought recombinant biotinylated protein (Immunitrack ITF05 or ACRO FCM-C82W5); also called cFcRn; cFcRn/cb2M
T1 sequence (Q8SPV9 24-297 limits assumed, chain 1 of 2): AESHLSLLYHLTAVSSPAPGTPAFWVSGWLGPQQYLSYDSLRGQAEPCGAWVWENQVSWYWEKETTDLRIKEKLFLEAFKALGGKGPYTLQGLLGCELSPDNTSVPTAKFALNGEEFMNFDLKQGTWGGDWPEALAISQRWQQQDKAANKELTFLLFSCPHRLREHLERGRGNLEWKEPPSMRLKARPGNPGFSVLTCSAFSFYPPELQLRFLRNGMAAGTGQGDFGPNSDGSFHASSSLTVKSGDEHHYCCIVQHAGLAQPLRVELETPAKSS
T1 sequence (Q8SPW0 21-119 limits assumed, chain 2 of 2): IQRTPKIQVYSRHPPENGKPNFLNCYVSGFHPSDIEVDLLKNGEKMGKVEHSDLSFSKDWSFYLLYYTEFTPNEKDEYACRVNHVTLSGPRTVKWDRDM
method_summary: SPR pH 6.0;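 also: surface plasmon resonance kinetics at 25 °C, diluted periplasmic extracts injected over immobilized ligand surfaces, 120 s association then 600–3600 s dissociation, running buffer containing 150 mM NaCl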
endpoint: koff (s⁻¹)

Worked examples, 2 binders total:
binder	unit_string	koff
T0263018B11 F29I (VHH, name in Kabat numbering, FLAG3-His6 tagged) VHH: EVQLVESGGGVVQPGGSLRLSCAASGFTISSYAMYWVRQAPGKGLEWVSAISSGGGSTDYADSVKGRFTISRDNSKNTLYLQMNSLRPEDTALYYCAADTLYTSLTWYSYWGQGTLVTVSS	s⁻¹	0.0015
T0263018B11 S56L (VHH, name in Kabat numbering, FLAG3-His6 tagged) VHH: EVQLVESGGGVVQPGGSLRLSCAASGFTFSSYAMYWVRQAPGKGLEWVSAISSGGGLTDYADSVKGRFTISRDNSKNTLYLQMNSLRPEDTALYYCAADTLYTSLTWYSYWGQGTLVTVSS	s⁻¹	0.00045

I: T0263018B11 F29H (VHH, name in Kabat numbering, FLAG3-His6 tagged) VHH: EVQLVESGGGVVQPGGSLRLSCAASGFTHSSYAMYWVRQAPGKGLEWVSAISSGGGSTDYADSVKGRFTISRDNSKNTLYLQMNSLRPEDTALYYCAADTLYTSLTWYSYWGQGTLVTVSS
II: T0263018B11 S56A (VHH, name in Kabat numbering, FLAG3-His6 tagged) VHH: EVQLVESGGGVVQPGGSLRLSCAASGFTFSSYAMYWVRQAPGKGLEWVSAISSGGGATDYADSVKGRFTISRDNSKNTLYLQMNSLRPEDTALYYCAADTLYTSLTWYSYWGQGTLVTVSS
Returns: the label, I or II , whose recorded koff is the lower number. To answer, give the label that identifies your chosen option.
II
(II: 0.001 s⁻¹, I: 0.0031 s⁻¹)
